# Ki annotations
biological target: human GRP receptor (BB2) (Homo sapiens, UniProt P30550); construct: expressed in transfected cells; membranes prepared from the cells; assay: BB2 binding assay ([125I][Tyr4]bombesin displacement, CHO-K1 membranes); conditions: Table 1, human GRP receptor binding affinity; Ki from IC50 by Cheng-Prusoff; read-out: GRP Kj
Sequence (P30550 whole entry): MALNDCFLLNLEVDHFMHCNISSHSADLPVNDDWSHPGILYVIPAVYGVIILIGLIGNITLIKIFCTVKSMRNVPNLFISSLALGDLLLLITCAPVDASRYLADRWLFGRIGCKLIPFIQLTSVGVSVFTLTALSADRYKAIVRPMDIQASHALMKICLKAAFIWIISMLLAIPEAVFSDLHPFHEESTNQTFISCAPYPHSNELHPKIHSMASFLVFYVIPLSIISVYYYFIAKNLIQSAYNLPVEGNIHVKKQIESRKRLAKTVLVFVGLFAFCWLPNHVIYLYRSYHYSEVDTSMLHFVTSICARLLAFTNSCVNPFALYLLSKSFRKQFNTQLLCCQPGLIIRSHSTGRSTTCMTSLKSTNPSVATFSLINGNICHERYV
Hi, when you answer, please include the unit after the number. Thanks!

Worked cases, answers included:
> print(dat)
                            compound.string  reported.result
1  COc1ccc(C2(CNC(=O)[C@](C)(Cc3c[nH]c4ccccc34)Nc3nc(-c4ccccc4)co3)CCCCC2)nc1          1190 nM
2  COc1ccc(C2(CNC(=O)[C@](C)(Cc3c[nH]c4ccccc34)Nc3nc(-c4ccc([N+](=O)[O-])cc4)co3)CCCCC2)nc1            24 nM

Continue with the next molecule.
Sure, the documented Ki for C[C@@](Cc1c[nH]c2ccccc12)(NCCc1ccccc1)C(=O)NCC1(c2ccccn2)CCCCC1 is 2620 nM

---

target: human NMB receptor (BB1) (Homo sapiens); construct: expressed in transfected cells; membranes prepared from the cells; assay: BB1 binding assay ([125I][Tyr4]bombesin displacement, CHO-K1 membranes)
Measured parameter: IC50

Worked cases, answers included:
> print(dat)
                            compound.string                            target.entity  reported.result
1  C[C@@](Cc1c[nH]c2ccccc12)(NS(=O)(=O)c1ccc(Cl)cc1)C(=O)NCC1(c2ccccn2)CCCCC1  human NMB receptor (BB1) (Homo sapiens)           373 nM
2  C[C@@](Cc1c[nH]c2ccccc12)(NS(=O)(=O)c1cccc(C#N)c1)C(=O)NCC1(c2ccccn2)CCCCC1  human NMB receptor (BB1) (Homo sapiens)           460 nM
3  C[C@@](Cc1c[nH]c2ccccc12)(NS(=O)(=O)c1ccc(C(F)(F)F)cc1)C(=O)NCC1(c2ccccn2)CCCCC1  human NMB receptor (BB1) (Homo sapiens)           553 nM

Continue with the next molecule.
Sure, the documented IC50 for COc1ccc(S(=O)(=O)N[C@@](C)(Cc2c[nH]c3ccccc23)C(=O)NCC2(c3ccccn3)CCCCC2)cc1OC is 608 nM

---

Molecular target: human NMB receptor (BB1) (Homo sapiens)
Construct: expressed in transfected cells; membranes prepared from the cells
Assay: BB1 binding assay ([125I][Tyr4]bombesin displacement, CHO-K1 membranes)
Details: Table 3, N-acyl derivatives of Intermediate III-7
Protocol: In the following experiments, measurement of BB1 and BB2 binding was as follows. […] Radioactivity bound was determined using a gamma counter. All competition data was analysed using nonlinear regression utilizing iterative curve-plotting procedures in Prism® (GraphPad Software Inc., San Diego, USA). […]
# pIC50 annotations
Lab note — pIC50 values are minus log10 of concentrations in M.

Worked cases, answers included:
> print(dat)
                            compound.string                            target.entity  measured.parameter  reported.result
1  C[C@@](Cc1c[nH]c2ccccc12)(NC(=O)c1ccco1)C(=O)NCC1(c2ccccn2)CCCCC1  human NMB receptor (BB1) (Homo sapiens)               pIC50             5.92
2  C[C@@](Cc1c[nH]c2ccccc12)(NC(=O)c1cccc2cc[nH]c12)C(=O)NCC1(c2ccccn2)CCCCC1  human NMB receptor (BB1) (Homo sapiens)               pIC50             5.86

Sure, the documented pIC50 for C[C@@](Cc1c[nH]c2ccccc12)(NC(=O)c1ccoc1)C(=O)NCC1(c2ccccn2)CCCCC1 is 5.92

---

molecular target: human NMB receptor (BB1) (Homo sapiens, UniProt P28336); construct: expressed in transfected cells; membranes prepared from the cells; experiment: BB1 binding assay ([125I][Tyr4]bombesin displacement, CHO-K1 membranes)
Sequence (P28336 whole entry): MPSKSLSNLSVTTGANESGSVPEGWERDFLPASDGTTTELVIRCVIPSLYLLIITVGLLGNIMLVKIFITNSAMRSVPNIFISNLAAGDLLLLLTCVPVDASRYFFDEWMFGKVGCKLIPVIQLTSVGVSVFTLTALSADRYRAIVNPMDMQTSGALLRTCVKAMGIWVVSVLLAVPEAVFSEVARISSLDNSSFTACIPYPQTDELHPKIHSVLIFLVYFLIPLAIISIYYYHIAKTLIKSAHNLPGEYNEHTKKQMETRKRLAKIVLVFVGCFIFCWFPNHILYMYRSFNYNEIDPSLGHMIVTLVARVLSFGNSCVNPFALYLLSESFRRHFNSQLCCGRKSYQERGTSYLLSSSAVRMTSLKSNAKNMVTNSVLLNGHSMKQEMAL
Measured parameter: IC50 (nM)
Your answer is read as nM, so omit the unit and give the number.

Worked cases, answers included:
> print(dat)
                                   compound  reported.result
1  Cc1ccc(S(=O)(=O)N[C@@](C)(Cc2c[nH]c3ccccc23)C(=O)NCC2(c3ccccn3)CCCCC2)cc1 [Example 112]              557
2  C[C@@](Cc1c[nH]c2ccccc12)(NS(=O)(=O)c1ccccc1F)C(=O)NCC1(c2ccccn2)CCCCC1 [Example 114]              267
3  Cc1cccc(S(=O)(=O)N[C@@](C)(Cc2c[nH]c3ccccc23)C(=O)NCC2(c3ccccn3)CCCCC2)c1 [Example 131]              393

Continue with the next compound.
Sure, the documented IC50 for C[C@@](Cc1c[nH]c2ccccc12)(NS(=O)(=O)c1cccs1)C(=O)NCC1(c2ccccn2)CCCCC1 [Example 119] is 232
